experimentalDetails: in vivo
testParameters: rat, plasma, po, 10 mg/kg
Please provide measured log10(AUC(0-t) at 6 h) for the entries that follow.
# log10 transformed; quantity=AUC(0-t) at 6 h; unit=ng·h/mL

O=C(CC1([C@H]2CCC[C@@H](C3CC3)N2S(=O)(=O)c2ccc(Cl)cc2)CC1)N1CCN2CCCC[C@H]2C1 (racemic)	2.83
CC[C@@H]1CCC[C@H](C2(Cc3nc(CN4CCCC4)no3)CC2)N1S(=O)(=O)c1ccc(Cl)cc1 (racemic)	1.41

Please state, for each entry, its recorded log10(AUC(0-t) at 6 h).
1. CC[C@@H]1CCC[C@H](C2(CC(=O)N3CCN(C(C)(C)CO)CC3)CC2)N1S(=O)(=O)c1ccc(Cl)cc1 (racemic)
2. CC[C@@H]1CCC[C@H](C2(CC(=O)N3CCC(N4CCCCC4)CC3)CC2)N1S(=O)(=O)c1ccc(Cl)cc1 (racemic)
3. CC[C@@H]1CCC[C@H](C2(CC(=O)N3CCN4CCCC[C@H]4C3)CC2)N1S(=O)(=O)c1ccc(Cl)cc1 (racemic)
4. CN(Cc1noc(CC2([C@H]3CCC[C@@H](C4CC4)N3S(=O)(=O)c3ccc(Cl)cc3)CC2)n1)C(C)(C)CO (racemic)
5. CC[C@@H]1CCC[C@H](C2(CC(=O)N3CC4CCC(C3)N4C)CC2)N1S(=O)(=O)c1ccc(Cl)cc1 (mixture of isomers)
6. O=C(CC1([C@H]2CCC[C@@H](C3CC3)N2S(=O)(=O)c2ccc(Cl)cc2)CC1)N1CC2CCC(C1)N2CCO (mixture of isomers)
7. CC[C@@H]1CCC[C@H](C2(Cc3nc(CN(C)C(C)(C)CO)no3)CC2)N1S(=O)(=O)c1ccc(Cl)cc1 (racemic)

Resp:
1. 3.21
2. 1.97
3. 2.62
4. 2.16
5. 3.42
6. 3.76
7. 2.99

Report log10(AUC(0-t) at 6 h) for every entry below.
1. CC[C@@H]1CCC[C@H](C2(CC(=O)N3CC4CCC(C3)N4CCO)CC2)N1S(=O)(=O)c1ccc(Cl)cc1 (mixture of isomers)
2. CC(C)(CO)N1CCN(C(=O)CC2([C@H]3CCC[C@@H](C4CC4)N3S(=O)(=O)c3ccc(Cl)cc3)CC2)CC1 (racemic)

Resp:
1: 3.51; 2: 3.13
